Assay protocol: Compound pharmacokinetics study in mice (plasma and brain)
Assay type: in vivo
Cond: male, Swiss; mouse, plasma; iv (2 mpk) or PO (10 mpk), followed for 24 hours
Assay metric: AUC(0-t) (ng·h/mL)

1) COC(c1ccc(OC(F)(F)F)cc1)C1CC1c1cc(C)c(OC(C)(C)C(=O)O)c(C)c1 (single isomer, unassigned)
71800

----------
Overview of reported Gal4-hPPARα(LBD) TOP (% ref) across a group of compounds:
Subject of test: hPPARalpha (Homo sapiens)
Construct: Gal4-hPPARα(LBD); Gal4 (fusion partner); expressed in transfected cells; host or cells: COS-7 (monkey kidney)
Sequence (Q07869 239-466 limits assumed): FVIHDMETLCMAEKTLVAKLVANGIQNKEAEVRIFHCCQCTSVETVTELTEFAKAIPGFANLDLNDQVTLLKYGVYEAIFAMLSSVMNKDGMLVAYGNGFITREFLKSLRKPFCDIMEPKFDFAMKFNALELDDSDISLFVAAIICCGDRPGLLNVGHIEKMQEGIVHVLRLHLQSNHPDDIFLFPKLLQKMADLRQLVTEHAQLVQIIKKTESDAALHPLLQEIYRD
Assay protocol: Gal4-hPPARalpha transactivation assay in COS-7 cells (luciferase)
Format: cell-based
Cond: maximal relative activation vs reference
Description: Monkey kidney COS-7 cells were maintained in standard culture conditions (Dulbecco's modified Eagle's minimal medium: DMEM) supplemented with 10% fetal calf serum, 1% sodium pyruvate, 1% essential amino acids and 1% antibiotics at 37° C. in a humidified atmosphere of 5% C02 and 95% air. The medium was changed every 2 days. All tested compounds were dissolved in DMSO. […] The luciferase activity was measured with the Steady-Glo Luciferase Assay System (Promega, Madison, Wis.). […]
Assay metric: Gal4-hPPARα(LBD) TOP (% ref)

1. COC(c1ccc(C(F)(F)F)cc1F)C1CC1c1cc(C)c(OC(C)(C)C(=O)O)c(C)c1 (racemic)
37
2. COC(c1ccc(OC(F)(F)F)cc1)C1CC1c1ccc(OC(C)(C)C(=O)O)c(C(C)C)c1 (racemic)
31
3. Cc1cc(C2CC2C(OCc2ccccc2)c2ccc(OC(F)(F)F)cc2)cc(C)c1OC(C)(C)C(=O)O (racemic)
42

----------
Subject of test: hPPARgamma (Homo sapiens, UniProt P37231)
Construct: Gal4-hPPARγ(LBD); Gal4 (fusion partner)
Sequence (P37231 238-503 limits assumed): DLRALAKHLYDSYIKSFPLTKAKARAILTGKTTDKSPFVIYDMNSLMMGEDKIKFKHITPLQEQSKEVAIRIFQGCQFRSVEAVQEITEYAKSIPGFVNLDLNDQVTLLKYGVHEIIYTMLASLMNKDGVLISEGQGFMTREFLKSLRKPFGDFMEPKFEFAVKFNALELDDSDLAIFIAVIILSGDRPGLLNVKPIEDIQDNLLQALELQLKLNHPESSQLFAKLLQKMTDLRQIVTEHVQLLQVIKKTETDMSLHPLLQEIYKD
Assay protocol: Gal4-hPPARgamma transactivation assay in COS-7 cells (luciferase)
Cond: Gal4-hPPARγ(LBD) transactivation
pEC50: −log10 of the molar value.
Assay metric: pEC50

1) COC(c1ccc(OC(F)(F)F)cc1)C1CC1c1ccc(OC(C)(C)C(=O)O)c(Br)c1 (racemic)
7.01
2) CCCCOC(c1ccc(OC(F)(F)F)cc1)C1CC1c1cc(C)c(OC(C)(C)C(=O)O)c(C)c1 (single isomer, unassigned) [Cpd 5-1]
6.84
3) CCCCOC(c1ccc(OC(F)(F)F)cc1)C1CC1c1cc(C)c(OC(C)(C)C(=O)O)c(C)c1 (single isomer, unassigned) [Cpd 5-2]
7.68
4) COC(c1ccc(OC(F)(F)F)cc1)C1CC1c1cc(C)c(OC(C)(C)C(=O)O)c(C)c1 (single isomer, unassigned) [Cpd 14-2]
7.77
5) COC(c1ccc(OC(F)(F)F)cc1)C1CC1c1cc(F)c(OC(C)(C)C(=O)O)c(F)c1 (racemic)
6.64
6) COC(c1ccc(SC)cc1)C1CC1c1cc(C)c(OC(C)(C)C(=O)O)c(C)c1 (single isomer, unassigned) [Cpd 3-1]
7.46
7) COC(c1ccc(OC(F)(F)F)cc1)C1CC1c1ccc(OC(C)(C)C(=O)O)c(C(C)C)c1 (single isomer, unassigned) [Cpd 15-2]
7.34
8) COC(c1ccc(SC(F)(F)F)cc1)C1CC1c1cc(C)c(OC(C)(C)C(=O)O)c(C)c1 (racemic)
7.96
9) COC(c1ccc(OC(F)(F)F)cc1)C1CC1c1cc(C)c(OC(C)(C)C(=O)O)c(C)c1 (single isomer, unassigned) [Cpd 14-1]
7.60
10) COC(c1ccc(OC(F)(F)F)cc1)C1CC1c1ccc(OC(C)(C)C(=O)O)c(C)c1 (racemic)
7.35
11) COC(c1ccc(C(F)(F)F)cc1F)C1CC1c1cc(C)c(OC(C)(C)C(=O)O)c(C)c1 (single isomer, unassigned) [Cpd 12-1]
7.92
12) COC(c1ccc(C(F)(F)F)cc1F)C1CC1c1cc(C)c(OC(C)(C)C(=O)O)c(C)c1 (single isomer, unassigned) [Cpd 12-2]
8.52
13) CCOC(c1ccc(OC(F)(F)F)cc1)C1CC1c1cc(C)c(OC(C)(C)C(=O)O)c(C)c1 (racemic) [Cpd 10-2]
7.41

----------
Subject of test: hPPARalpha (Homo sapiens, UniProt Q07869)
Construct: Gal4-hPPARα(LBD); Gal4 (fusion partner); expressed in transfected cells; host or cells: COS-7 (monkey kidney)
Sequence (Q07869 239-466 limits assumed): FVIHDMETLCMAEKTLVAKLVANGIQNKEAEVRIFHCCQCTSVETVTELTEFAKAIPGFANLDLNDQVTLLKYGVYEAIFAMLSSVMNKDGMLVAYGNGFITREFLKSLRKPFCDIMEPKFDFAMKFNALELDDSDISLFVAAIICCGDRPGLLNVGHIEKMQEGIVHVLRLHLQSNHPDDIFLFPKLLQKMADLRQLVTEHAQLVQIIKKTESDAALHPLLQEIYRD
Assay protocol: Gal4-hPPARalpha transactivation assay in COS-7 cells (luciferase)
Type: cell-based
Cond: maximal relative activation vs reference
Assay metric: Gal4-hPPARα(LBD) TOP (% ref)

1) COC(c1ccc(SC)cc1)C1CC1c1cc(C)c(OC(C)(C)C(=O)O)c(C)c1 (racemic) [Cpd 3-2]
42
2) Cc1cc(C2CC2C(OCCC2CCCCC2)c2ccc(OC(F)(F)F)cc2)cc(C)c1OC(C)(C)C(=O)O (racemic) [Cpd 6-2]
38
3) CCOC(c1ccc(OC(F)(F)F)cc1)C1CC1c1cc(C)c(OC(C)(C)C(=O)O)c(C)c1 (racemic) [Cpd 10-2]
43
4) COC(c1ccc(Br)cc1)C1CC1c1cc(C)c(OC(C)(C)C(=O)O)c(C)c1 (racemic) [Cpd 1-2]
33
5) COC(c1ccc(C(F)(F)F)cc1C(F)(F)F)C1CC1c1cc(C)c(OC(C)(C)C(=O)O)c(C)c1 (racemic) [Cpd 16-2]
50
6) CCCCOC(c1ccc(OC(F)(F)F)cc1)C1CC1c1cc(C)c(OC(C)(C)C(=O)O)c(C)c1 (racemic) [Cpd 5-2]
47
7) COC(c1ccccc1OC(F)(F)F)C1CC1c1cc(C)c(OC(C)(C)C(=O)O)c(C)c1 (racemic) [Cpd 13-2]
28

----------
Subject of test: hPPARalpha (Homo sapiens, UniProt Q07869)
Construct: Gal4-hPPARα(LBD); Gal4 (fusion partner); expressed in transfected cells; host or cells: COS-7 (monkey kidney)
Assay protocol: Gal4-hPPARalpha transactivation assay in COS-7 cells (luciferase)
Assay type: cell-based
Cond: COS-7, maximal relative activation vs reference; read-out: Gal4-hPPARα(LBD) TOP (% ref)
Assay metric: Emax (%)

1) COC(c1ccc(C(F)(F)F)cc1)C1CC1c1cc(C)c(OC(C)(C)C(=O)O)c(C)c1 (racemic) [Cpd 4-1]
47
2) CCCCCCOc1ccccc1C(OC)C1CC1c1cc(C)c(OC(C)(C)C(=O)O)c(C)c1 (racemic) [Cpd 18-1]
44
3) COC(c1ccc(OC(F)(F)F)cc1)C1CC1c1cc(C)c(OC(C)(C)C(=O)O)c(C)c1 (stereo not shown) [Cpd 14-2-1]
44
4) COC(c1ccc(C(F)(F)F)cc1C(F)(F)F)C1CC1c1cc(C)c(OC(C)(C)C(=O)O)c(C)c1 (single isomer, unassigned) [Cpd 16-1]
40
5) COC(c1ccc(OC(F)(F)F)cc1)C1CC1c1cc(C)c(OC(C)(C)C(=O)O)c(C)c1 (single isomer, unassigned) [Cpd 14-1]
60
6) COC(c1ccc(OC(F)(F)F)cc1)C1CC1c1ccc(OC(C)(C)C(=O)O)c(Br)c1 (racemic) [Cpd 19-1]
53
7) COC(c1ccc(OC(F)(F)F)cc1)C1CC1c1ccc(OC(C)(C)C(=O)O)c(C)c1 (racemic) [Cpd 7-1]
42

----------
Overview of reported Gal4-hPPARγ(LBD) TOP (% ref) across a group of compounds:
Subject of test: hPPARgamma (Homo sapiens, UniProt P37231)
Construct: Gal4-hPPARγ(LBD); Gal4 (fusion partner); expressed in transfected cells; host or cells: COS-7 (monkey kidney)
Assay protocol: Gal4-hPPARgamma transactivation assay in COS-7 cells (luciferase)
Type: cell-based
Cond: maximal relative activation vs reference
Assay metric: Gal4-hPPARγ(LBD) TOP (% ref)

1. COC(c1ccc(C(F)(F)F)cc1F)C1CC1c1cc(C)c(OC(C)(C)C(=O)O)c(C)c1 (racemic) [Cpd 12-2]
85
2. COC(c1ccc(SC)cc1)C1CC1c1cc(C)c(OC(C)(C)C(=O)O)c(C)c1 (racemic) [Cpd 3-2]
65
3. Cc1cc(C2CC2C(OCc2ccccc2)c2ccc(OC(F)(F)F)cc2)cc(C)c1OC(C)(C)C(=O)O (racemic) [Cpd 11-2]
87
4. CCCCOC(c1ccc(OC(F)(F)F)cc1)C1CC1c1cc(C)c(OC(C)(C)C(=O)O)c(C)c1 (racemic) [Cpd 5-2]
72
5. COC(c1ccc(OC(F)(F)F)cc1)C1CC1c1ccc(OC(C)(C)C(=O)O)c(C(C)C)c1 (racemic) [Cpd 15-2]
69
6. COC(c1ccccc1OC(F)(F)F)C1CC1c1cc(C)c(OC(C)(C)C(=O)O)c(C)c1 (racemic) [Cpd 13-2]
71
7. COC(c1ccc(C(F)(F)F)cc1C(F)(F)F)C1CC1c1cc(C)c(OC(C)(C)C(=O)O)c(C)c1 (racemic) [Cpd 16-2]
88
8. Cc1cc(C2CC2C(OCCC2CCCCC2)c2ccc(OC(F)(F)F)cc2)cc(C)c1OC(C)(C)C(=O)O (racemic) [Cpd 6-2]
79
9. COC(c1ccc(Br)cc1)C1CC1c1cc(C)c(OC(C)(C)C(=O)O)c(C)c1 (racemic) [Cpd 1-2]
77
